tested on: Hep3B cells; experiment: Hep3B cell growth inhibition (Hoechst 33258 DNA fluorescence, 3 days of treatment); assay type: cell-based, human; settings: Homo sapiens, 72 h; Liver, Hep3B, cultured for 3 days; maximum concentration 20 μmol/L; read-out: IC50
readout-type: IC50 (µM)
Answers are plain numbers, in µM.

In: # IC50 lookup, item O=C1C(SCCO)=C(SCCO)C(=O)N1c1ccc(-c2ccccc2)cc1
Out: 0.7

Values were extracted from patent US7504430B2.
